Biological target: T1, IL13RA2 Protein, mouse Recombinant- His tag (mouse, UniProt O88786 22-334, limits assumed)
T1 construct: also called mouse recombinant His tagged protein; not shown: His tag
T1 sequence (looked up): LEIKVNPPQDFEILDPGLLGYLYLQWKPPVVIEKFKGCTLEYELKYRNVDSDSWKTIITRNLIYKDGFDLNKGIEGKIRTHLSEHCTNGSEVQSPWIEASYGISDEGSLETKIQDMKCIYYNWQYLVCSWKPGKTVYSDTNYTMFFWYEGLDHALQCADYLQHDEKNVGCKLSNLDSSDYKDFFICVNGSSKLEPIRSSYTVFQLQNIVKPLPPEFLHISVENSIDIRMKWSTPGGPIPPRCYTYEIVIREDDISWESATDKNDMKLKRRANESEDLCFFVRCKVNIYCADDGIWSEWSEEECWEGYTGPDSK
Experiment: BLI; biotinylated VHH captured on streptavidin biosensor, antigen 1 uM in solution
metric: Binding Response
The reply should consist of the numeric value with the unit placed after it.

Query block: Give the reported Binding Response for this binder. VH36f1 (VHH, biotinylated (site not stated), Expressed in E. coli and 6xHIS purified; also called VH36f1 Biotin; Anti-IL13Rα2 VH36) VHH: QVQLQESGGGSVQPGGSLRLSCAASGINISSDVMEWFRQGPGEQRELVAHITTNSRTEYADFVKGRFTISRANAKNTLYLQMNGLKPEDTALYYCALRRGGRILWGQGTQVTVSS
Result block: -0.01 nm

Query block: Give the reported Binding Response for this binder. VH43f2 (VHH, biotinylated (site not stated), Expressed in E. coli and 6xHIS purified; also called VH43f2-Biotin; Anti-IL13Rα2 VH43) VHH: QVQLQESGGGLVQPGGSLRLSCTASGSIRGIGYMAWGRQGPGKPRELIATINSAGDTNYAESVKGRFTVSRDNAENTLYLQMNNLKSEDTAVYYCNARPGLQSYWGQGTQVTVSS
Result block: -0.04 nm

Query block: Give the reported Binding Response for this binder. VH57f5 (VHH, biotinylated (site not stated), Expressed in E. coli and 6xHIS purified; also called VH57f5 Biotin; Anti-IL13Rα2 VH57) VHH: QVQLQESGGGLVQPGGSLRLSCAASGSIFNTNGMGWYRQAPGKQRERVAGISSGGNTVYAASVEGRFTISRDNAKNTGYLQMNNLKPEDTAVYYCRVAGRQDDYWGQGTQVTVSS
Result block: 1.17 nm

Query block: Give the reported Binding Response for this binder. VH53f3 (VHH, biotinylated (site not stated), Expressed in E. coli and 6xHIS purified; also called VH53f3 Biotin; Anti-IL13Rα2 VH53) VHH: QVQLQESGGGLVQPGGSLRLSCEVSGSISSINRMAWYRQVPGKEREMVAQITYGDTIKYYGSAKGRFTISKDSAKNAVYLQMNSLKPEDTAVYRCNIVGVLTTGHYENSFWGQGTQVTVSS
Result block: -0.01 nm

Query block: Give the reported Binding Response for this binder. VH52f3 (VHH, biotinylated (site not stated), Expressed in E. coli and 6xHIS purified; also called VH52f3 Biotin; Anti-IL13Rα2 VH52) VHH: QVQLQESGGGLVQPGGSLRLSCEVSGSIFSINRMAWYRQVPEKEREMVAQITYGDTIKYYGSAKGRFTISRDSAKNAVYLQMNSLKPEDTAVYRCNIVGVLTTGHYEDSFWGQGTQVTVPS
Result block: -0.02 nm

Query block: Give the reported Binding Response for this binder. IL13Ra2_2TIG4_f3 (VHH, biotinylated (site not stated), Expressed in E. coli and 6xHIS purified; also called IL13Ra2_2TIG4_f3-Biotin) VHH: QVQLQESGGGLVQPGGSLRLSCAASGRTYGMGWFRQAPGKEREFVAVGVWSSGNTYYADFARGRFTISRDNAKNTVYLQMDSLKPEDTAVYYCAAPRYSSYTTYHAAYDYWGPGTQVTVSS
Result block: -0.02 nm
